- System: MS2 coat protein
- METHOD: apparent KD of MS2 coat protein; designed switch direction (-1 OFF switch, 1 ON switch): -1; higher = weaker reporter binding
- CONDITION PARAMETERS: input ligand: none
OBSERVED PROPERTY: apparent KD of MS2 coat protein (µM)

[[record]]
sequence = "AAGUCGAGCGUGAGGAUAUCGUCCGAACGACCGAACGAGAAGGCACAUGAGGAUCACCCAUGUGAUUCAGCUCA [Brourd's EX4 #48] (Eterna round: R97, puzzle: Brourd's mod of Exclusion 4)"
units_of_measure = "µM"
measured = 0.0142

[[record]]
sequence = "ACAUGUUGUCCAUGAUAUUACAUGAGGAUCACCCAUGUUAUGGCGAUUUUGAUGUGUAAGUUUGUUGCUCGUCUUAU [JR_STOV1_Sub061] (Eterna round: R97, puzzle: Sensor, turn-off variant 1)"
units_of_measure = "µM"
measured = 0.0206

[[record]]
sequence = "GUACUAAAGCUUUGCUUUAGUCGUACAUGAGGAUCACCCAUGUAGGAUAUGGUAAGCAUAGCUUACUAGAAGGAUAGAGUGAUC [Mat - Exclusion NG 3 - Mod of JL - D66] (Eterna round: R96, puzzle: Exclusion NG 3)"
units_of_measure = "µM"
measured = 0.145

[[record]]
sequence = "AAAUUCAGAGGAUAUGCGCAUAGAUAAGACUUUUUUUCUUAACAUGAGGAUCACCCAUGUAGAAGGCUGUAAAC [Ex2 #61] (Eterna round: R97, puzzle: Exclusion 2)"
units_of_measure = "µM"
measured = 0.0162

[[record]]
sequence = "ACGGACCGAGGAUAUGCAUGCAGGAUACCUGGGUCCAAUGGACAUGAGGAUCACCCAUGUAGAAGGCGGAAAUA [Arinisra] (Eterna round: R97, puzzle: Exclusion 2)"
units_of_measure = "µM"
measured = 0.0314

